B1: ADAMTSL2 (parent)
chain: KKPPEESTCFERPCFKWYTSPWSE

Variants of: B1
Procedure Text: protein stability index of a GFP-peptide fusion (GPS, HEK-293T) (PSI 1-6); higher = more stable;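 also: lentivirally expressed fusions sorted by FACS into six bins by GFP to DsRed ratio, PSI derived from sequencing read proportions per bin multiplied by bin number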
Recorded Conditions: c terminus: a fixed tail appended
Could you please report measured protein stability index for the items listed next?
Answers are plain numbers.

Some entries whose results are on file:
[[record]]
residue_change = "K2L"
parameter = "protein stability index"
observed = 2.73

[[record]]
residue_change = "C9M"
parameter = "protein stability index"
observed = 2.8

[[record]]
residue_change = "E5F"
parameter = "protein stability index"
observed = 1.88

[[record]]
residue_change = "E6T"
parameter = "protein stability index"
observed = 1.84

[[record]]
residue_change = "E6V"
parameter = "protein stability index"
observed = 2.65


State the recorded protein stability index for every item in the following list.
1. F15K
2. C9L
3. P13A
4. R12F

Result block:
[2.64, 2.05, 2.23, 1.71]

State the recorded protein stability index for every item in the following list.
1. F15P
2. P4E

Result block:
2.31
2.4
